# Type: physicochemical
# settings: IAM.PC.DD2 column, gradient 0-85% acetonitrile, 50 mM ammonium acetate pH 7.4, 30 °C
observedProperty: CHIIAM (IAM chromatographic hydrophobicity index)

- compound: "C/C(=N\\C#N)N(C)Cc1ccc(Cl)nc1"
  observed: 13.4
- compound: "CO/C=C(/C(=O)OC)c1ccccc1Oc1cc(Oc2ccccc2C#N)ncn1"
  observed: 31.6
- compound: "CCOP(=S)(OCC)Oc1nc(Cl)c(Cl)cc1Cl"
  observed: 48.1
- compound: "N#Cc1c[nH]cc1-c1cccc2c1OC(F)(F)O2"
  observed: 43.5
- compound: "CC1(C)C(C(=O)OC(C#N)c2cccc(Oc3ccccc3)c2)C1(C)C (stereo not shown)"
  observed: 48.6
- compound: "CC(C)C1(C)N=C(c2ncccc2C(=O)O)NC1=O (stereo not shown)"
  observed: "−12.1"
- compound: "CC(C)(C)C(O)(CCc1ccc(Cl)cc1)Cn1cncn1 (stereo not shown)"
  observed: 39.5
- compound: "O=[N+]([O-])NC1=NCCN1Cc1ccc(Cl)nc1"
  observed: 14.2
- compound: "CCNc1nc(Cl)nc(NC(C)C)n1"
  observed: 27.4
- compound: "O=C(Nc1ccccc1-c1ccc(Cl)cc1)c1cccnc1Cl"
  observed: 38.0
- compound: "CC1(C)C(C=C(Cl)Cl)C1C(=O)OCc1cccc(Oc2ccccc2)c1 (stereo not shown)"
  observed: 54.8
- compound: "CCNc1nc(Cl)nc(NC(C)(C)C)n1"
  observed: 34.3
- compound: "CCOP(=S)(OCC)Oc1cc(C)nc(C(C)C)n1"
  observed: 39.3
- compound: "COP(=S)(OC)Oc1ccc([N+](=O)[O-])c(C)c1"
  observed: 38.1
- compound: "CCCC1COC(Cn2cncn2)(c2ccc(Cl)cc2Cl)O1 (stereo not shown)"
  observed: 38.7
- compound: "Cc1c(COC(=O)[C@@H]2[C@H](/C=C(\\Cl)C(F)(F)F)C2(C)C)cccc1-c1ccccc1 (racemic)"
  observed: 54.4
